pIC50: −log10 of the molar value.
Reported pIC50 values, glutaminase (GAC) (Homo sapiens).

// solved cases for pIC50 follow
O=C(Cc1cccc(NC2CC(F)(F)C2)n1)Nc1nnc([C@H]2CCC[C@H](c3nnc(NC(=O)Cc4cccc(NC5CC(F)(F)C5)n4)s3)C2)s1	6.30 to 7.00
Nc1nc(CC(=O)Nc2nnc([C@H]3CCC[C@H](c4nnc(NC(=O)Cc5csc(N)n5)s4)C3)s2)cs1	> 7.00
Nc1ccccc1CC(=O)Nc1nnc([C@H]2CCC[C@H](c3nnc(NC(=O)Cc4ccccc4N)s3)C2)s1	> 7.00

// next entry
**Q:** Which pIC50 value belongs to `CC(C)C(=O)Nc1nnc([C@@H]2CCC[C@@H](c3nnc(NC(=O)C(C)C)s3)C2)s1` ?
**A:** 6.30 to 7.00

Provenance of the data: patent US9029531B2
